Target: human beta-Klotho (human, UniProt Q86Z14 1-1044)
Test: cell-based or functional assay
# pERK-HEK293-Beta-klotho without HSA [EC50 (nM)] Median Value listing for each entry below
Give just the number in nM; leave the unit off.

1) Met-FGF21 (mature human FGF21 with an added N-terminal methionine) (ligand) MHPIPDSSPLLQFGGQVRQRYLYTDDAQQTEAHLEIREDGTVGGAADQSPESLLQLKALKPGVIQILGVKTSRFLCQRPDGALYGSLHFDPEACSFRELLLEDGYNVYQSEAHGLPLHLPGNKSPHRDPAPRGPARFLPLPGLPPALPEPPGILAPQPPDVGSSDPLSMVGPSQGRSPSYAS : 1.6
2) Derivative 19: Analog 3 with modifying moiety III on the sulphur of Cys 71 (ligand, Cys 71: {2-[2-(2-{2-[2-(2-{2-[(S)-4-Carboxy-4-(17-carboxyheptadecanoylamino)butyrylamino]ethoxy}ethoxy)acetylamino]ethoxy}ethoxy)acetylamino]ethylcarbamoyl}methyl (modifying moiety III) on the sulphur atom) AHPIPDSSPLLQFGGQVRQRYLYTDDAQQTEAHLEIREDGTVGGAADQSPESLLQLKALKPGVIQILGVKTCRFLCQRPDGALYGSLHFDPEACSFRELLLEDGYNVYQSEAHGLPLHLPGNKSPHRDPAPRGPARFLPLPGLPPALPEPPGILAPQPPDVGSSDPFGLVGLEAVRSPSFE : 0.48

Note: attention shifts to another entry.
**Query** Would you kindly share the measured pERK-HEK293-Beta-klotho without HSA [EC50 (nM)] Median Value for [-1A, S71C, L166F, S167G, M168L, G174V, Y179F, A180E, des181] FGF-21 (ligand) AHPIPDSSPLLQFGGQVRQRYLYTDDAQQTEAHLEIREDGTVGGAADQSPESLLQLKALKPGVIQILGVKTCRFLCQRPDGALYGSLHFDPEACSFRELLLEDGYNVYQSEAHGLPLHLPGNKSPHRDPAPRGPARFLPLPGLPPALPEPPGILAPQPPDVGSSDPFGLVGPSQVRSPSFE ?
**Result** 0.71
